# Ki listing for each entry below
# assay.system: human D2 receptor (Homo sapiens)
# Construct: expressed in transfected cells
# Sequence (P14416 whole entry): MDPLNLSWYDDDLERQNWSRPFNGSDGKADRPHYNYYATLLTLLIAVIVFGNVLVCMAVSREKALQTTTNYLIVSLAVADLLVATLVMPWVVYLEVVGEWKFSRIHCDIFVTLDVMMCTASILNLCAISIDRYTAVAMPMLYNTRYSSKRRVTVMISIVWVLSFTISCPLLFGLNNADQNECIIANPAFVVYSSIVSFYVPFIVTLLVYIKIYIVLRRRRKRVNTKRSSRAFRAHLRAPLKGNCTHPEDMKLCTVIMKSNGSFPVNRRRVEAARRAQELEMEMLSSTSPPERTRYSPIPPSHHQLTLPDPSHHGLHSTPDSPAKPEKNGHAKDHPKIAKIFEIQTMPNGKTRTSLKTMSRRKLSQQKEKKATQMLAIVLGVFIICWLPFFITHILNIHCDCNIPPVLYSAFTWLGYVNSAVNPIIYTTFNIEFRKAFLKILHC
# assay.method.text: inhibition of [^3 H]spiperone binding to the human D2 receptor
# stated.conditions: read-out: Dopamine Receptor Binding (Ki, nM) D2

# chem.smiles, Ki
rows = [
    ("COc1ccc2c3c(c(=O)oc2c1)CN(Cc1ccccc1Cl)CC3", "> 5880 nM"),
    ("COc1ccc2c3c(c(=O)oc2c1)CN(Cc1ccc(Cl)cc1)CC3", "> 5880 nM"),
    ("COc1ccc2c3c(c(=O)oc2c1)CN(CCc1ccccc1)CC3", "> 5880 nM"),
]

* * *

# assay.system: human D4 dopamine receptor (Homo sapiens, UniProt P21917)
# Construct: expressed in transfected cells
# Sequence (P21917 whole entry): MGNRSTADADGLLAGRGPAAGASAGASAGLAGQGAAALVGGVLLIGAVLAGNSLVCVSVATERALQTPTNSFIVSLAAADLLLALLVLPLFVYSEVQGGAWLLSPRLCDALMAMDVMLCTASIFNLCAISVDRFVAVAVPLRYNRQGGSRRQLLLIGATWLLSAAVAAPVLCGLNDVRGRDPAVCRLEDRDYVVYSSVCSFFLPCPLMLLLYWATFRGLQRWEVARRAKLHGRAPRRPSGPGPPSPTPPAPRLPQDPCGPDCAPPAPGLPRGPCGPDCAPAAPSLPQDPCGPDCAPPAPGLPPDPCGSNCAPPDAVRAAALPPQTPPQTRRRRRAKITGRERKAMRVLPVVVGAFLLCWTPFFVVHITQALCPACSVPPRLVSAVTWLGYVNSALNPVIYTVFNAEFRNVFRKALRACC
# assay.method.text: inhibition of [^3 H]spiperone binding to the human D4 dopamine receptor
Counter-ions that a name gives are not always drawn.
Ki by entry:

# molecule, assay.system, Ki [nM]
measured = [
    ("COc1cc2oc(=O)c3c(c2cc1OC)CCN(Cc1ccc(Cl)cc1)C3 [Example 21]", "human D4 dopamine receptor (Homo sapiens, UniProt P21917)", 8.46),
    ("COc1ccc2c3c(c(=O)oc2c1)CN(Cc1ccc(Cl)cc1)CC3 [Example 9]", "human D4 dopamine receptor (Homo sapiens, UniProt P21917)", 7.3),
    ("Cc1ccc2c3c(c(=O)oc2c1)CN(Cc1ccc(Cl)cc1)CC3 [Example 20]", "human D4 dopamine receptor (Homo sapiens, UniProt P21917)", 10.6),
    ("Cc1ccc2c3c(c(=O)oc2c1)CN(Cc1ccccc1)CC3 [Example 17]", "human D4 dopamine receptor (Homo sapiens, UniProt P21917)", 3.59),
    ("COc1cc2oc(=O)c3c(c2cc1OC)CCN(Cc1ccccc1)C3 [Example 6]", "human D4 dopamine receptor (Homo sapiens, UniProt P21917)", 59),
    ("COc1ccc2c3c(c(=O)oc2c1)CN(Cc1ccccc1Cl)CC3 [Example 16]", "human D4 dopamine receptor (Homo sapiens, UniProt P21917)", 33.9),
    ("COc1ccc2c3c(c(=O)oc2c1)CN(CCc1ccccc1)CC3 [Example 22]", "human D4 dopamine receptor (Homo sapiens, UniProt P21917)", 6.87),
    ("Cc1c(O)cc2oc(=O)c3c(c2c1O)CCN(Cc1ccccc1)C3 [Example 8, hydrochloride]", "human D4 dopamine receptor (Homo sapiens, UniProt P21917)", 44.3),
    ("COc1ccc2c3c(c(=O)oc2c1OC)CN(Cc1ccccc1)CC3 [Example 24]", "human D4 dopamine receptor (Homo sapiens, UniProt P21917)", 16.2),
    ("COc1cc2oc(=O)c3c(c2cc1OC)CCN(CCc1ccccc1)C3 [Example 23, hydrochloride]", "human D4 dopamine receptor (Homo sapiens, UniProt P21917)", 32.6),
    ("COc1ccc2c3c(c(=O)oc2c1)CN(Cc1ccc(C(F)(F)F)cc1)CC3 [Example 13]", "human D4 dopamine receptor (Homo sapiens, UniProt P21917)", 8.18),
    ("COc1ccc(CN2CCc3c(c(=O)oc4cc(OC)ccc34)C2)cc1 [Example 14]", "human D4 dopamine receptor (Homo sapiens, UniProt P21917)", 84.3),
    ("COc1ccc2c3c(c(=O)oc2c1)CN(Cc1cccc(Cl)c1)CC3 [Example 15]", "human D4 dopamine receptor (Homo sapiens, UniProt P21917)", 17.2),
]
